experimentalTarget: G12C KRAS (aa2-184) (Homo sapiens, UniProt P01116, G12C)
Sequence (P01116 2-184 isoform P01116-2 G12C): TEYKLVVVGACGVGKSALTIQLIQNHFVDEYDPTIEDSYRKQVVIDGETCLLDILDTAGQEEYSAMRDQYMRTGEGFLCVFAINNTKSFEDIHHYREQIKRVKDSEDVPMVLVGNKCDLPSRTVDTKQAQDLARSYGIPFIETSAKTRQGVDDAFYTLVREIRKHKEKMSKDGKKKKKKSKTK
assayComment: biochemical
# pKd per entry
Please report pKd as the negative decimal logarithm of the molar concentration, giving only the number.

Solved cases below.
>>> measuredvalue("C#Cc1c(F)ccc2cc(O)cc(-c3nc4c5c(nc(OC[C@@]67CCCN6C[C@H](F)C7)nc5c3F)N(CCO)CCO4)c12")
10.51
>>> measuredvalue("C#Cc1c(F)ccc2cccc(-c3nc4c5c(nc(OC[C@@]67CCCN6C[C@H](F)C7)nc5c3F)N3CCCC[C@H]3CO4)c12")
8.44

Lab note: next compound to report on.
Query: Quickly give me recorded pKd for "Oc1cc(-c2ncc3c(N4C[C@@H]5C[C@H](C4)[C@H](O)C5)nc(OC[C@@]45CCCN4C[C@H](F)C5)nc3c2F)c2c(F)c(F)ccc2c1"
Response: 9.58

---

experimentalTarget: G12C KRAS (aa2-184) (Homo sapiens, UniProt P01116, G12C)
assayComment: biochemical
# pKd per entry
Please report pKd as the negative decimal logarithm of the molar concentration, giving only the number.

Solved cases below.
>>> measuredvalue("C#Cc1cccc2cc(O)cc(-c3ncc4c(N5C[C@@H]6C[C@H](C5)[C@H](O)C6)nc(OC[C@@]56CCCN5C[C@H](F)C6)nc4c3F)c12")
9.35
>>> measuredvalue("C#Cc1cccc2cc(O)cc(-c3ncc4c(N5CCN(C(C)=O)[C@@H](CC#N)C5)nc(OC[C@@]56CCCN5C[C@H](F)C6)nc4c3F)c12")
8.71

Lab note: next compound to report on.
Query: Fill: pKd (G12C KRAS (aa2-184) (Homo sapiens, UniProt P01116, G12C)) for this compound "C#Cc1c(F)ccc2cc(O)cc(-c3ncc4c(N5CCC[C@@H](CC#N)C5)nc(OC[C@@]56CCCN5C[C@H](F)C6)nc4c3F)c12"
Response: 9.13

---

experimentalTarget: G12V KRAS (aa2-184) (Homo sapiens, UniProt P01116, G12V)
Sequence (P01116 2-184 isoform P01116-2 G12V): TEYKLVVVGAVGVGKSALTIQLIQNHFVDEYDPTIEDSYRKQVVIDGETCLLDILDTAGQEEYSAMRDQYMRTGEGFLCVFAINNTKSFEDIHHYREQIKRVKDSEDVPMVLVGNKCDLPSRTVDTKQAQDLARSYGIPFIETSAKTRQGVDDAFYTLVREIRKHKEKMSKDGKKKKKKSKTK
assayComment: biochemical
pKd: −log10 of the molar value. Structures can show the parent of a compound that is named as a salt.
Grouping rule (pKd): low interval (below 9), middle interval (9 to below 10), high interval (10 or more)

Some solved entries appear below for comparison.
>>> labelclass("C#Cc1cccc2cc(O)cc(-c3ncc4c(N5C[C@@H]6C[C@H](O)[C@H](C5)O6)nc(OC[C@@]56CCCN5C[C@H](F)C6)nc4c3F)c12 (single isomer, unassigned)")
"low interval"
>>> labelclass("C#Cc1cccc2cc(O)cc(-c3ncc4c(N5CC[C@H](CC#N)C5)nc(OC[C@@]56CCCN5C[C@H](F)C6)nc4c3F)c12")
"low interval"
>>> labelclass("Oc1cc(-c2ncc3c(N4C[C@H]5CC[C@@H](C4)O5)nc(OC[C@@]45CCCN4C[C@H](F)C5)nc3c2F)c2c(F)c(F)ccc2c1 [Example 16, acetic acid salt]")
"low interval"
>>> labelclass("C#Cc1c(F)ccc2cccc(-c3nc4c5c(nc(OC[C@@]67CCCN6C[C@H](F)C7)nc5c3F)N3C[C@@H](O)CC[C@H]3CO4)c12")
"middle interval"

Query: Hi, small favor: classify "C#Cc1c(F)c(F)cc2cc(O)cc(-c3nc4c5c(nc(OC[C@@]67CCCN6C[C@H](F)C7)nc5c3F)N3CCCC[C@H]3CO4)c12" by its pKd when you get a moment.
Response: high interval

Query: Hi, small favor: classify "C#Cc1c(F)ccc2cc(O)cc(-c3nc4c5c(nc(OC[C@@]67CCCN6C[C@H](F)C7)nc5c3F)N3CCC[C@@H](O)[C@H]3CO4)c12" by its pKd when you get a moment.
Response: high interval

---

The following compounds have recorded Kd on WT NRAS (aa2-185) (Homo sapiens).
Sequence (P01111 2-185): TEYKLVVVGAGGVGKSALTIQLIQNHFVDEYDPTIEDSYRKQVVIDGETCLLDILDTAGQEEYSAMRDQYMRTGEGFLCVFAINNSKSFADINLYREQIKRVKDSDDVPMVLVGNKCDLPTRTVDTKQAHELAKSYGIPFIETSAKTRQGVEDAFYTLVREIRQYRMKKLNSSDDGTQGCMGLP
Structures can show the parent of a compound that is named as a salt.

Solved cases below.
>>> measuredvalue("N#CC[C@@H]1CCCN(c2nc(OC[C@@]34CCCN3C[C@H](F)C4)nc3c(F)c(-c4cc(O)cc5ccc(F)c(F)c45)ncc23)C1 [Example 12]")
"1 µM"
>>> measuredvalue("CC(=O)N1CCN(c2nc(OC[C@@]34CCCN3C[C@H](F)C4)nc3c(F)c(-c4cc(O)cc5ccc(F)c(F)c45)ncc23)C[C@@H]1CC#N [Example 13]")
"> 10 µM"

Query: Quickly give me recorded Kd for Oc1cc(-c2ncc3c(N4C[C@H]5CC[C@@H](C4)O5)nc(OC[C@@]45CCCN4C[C@H](F)C5)nc3c2F)c2c(F)c(F)ccc2c1 [Example 16, acetic acid salt]
Response: > 10 µM

---

# Kd per entry
experimentalTarget: G12C KRAS (aa2-184) (Homo sapiens, UniProt P01116, G12C)
assayComment: biochemical
Report only the number, with the unit nM understood.

>>> measuredvalue("C#Cc1c(F)ccc2cc(O)cc(-c3nc4c5c(nc(OC[C@@]67CCCN6C[C@H](F)C7)nc5c3F)N3CCC[C@@H](O)[C@H]3CO4)c12 [Example 28]")
0.064
>>> measuredvalue("Oc1cc(-c2ncc3c(N4C[C@H]5C[C@@H](O)[C@H]5C4)nc(OC[C@@]45CCCN4C[C@H](F)C5)nc3c2F)c2c(Cl)cccc2c1 (relative stereo) [Example 21]")
1.9
>>> measuredvalue("C#Cc1cccc2cc(O)cc(-c3ncc4c(N5C[C@@H]6C[C@H](O)[C@H](C5)O6)nc(OC[C@@]56CCCN5C[C@H](F)C6)nc4c3F)c12 (single isomer, unassigned) [Example 19]")
84.7
>>> measuredvalue("C#Cc1cccc2cc(O)cc(-c3ncc4c(N5CC[C@H](CC#N)C5)nc(OC[C@@]56CCCN5C[C@H](F)C6)nc4c3F)c12 [Example 3]")
11
>>> measuredvalue("Oc1cc(-c2ncc3c(N4C[C@@H]5C[C@H](O)[C@@H]5C4)nc(OC[C@@]45CCCN4C[C@H](F)C5)nc3c2F)c2c(Cl)cccc2c1 (relative stereo) [Example 22]")
42.4

Query: Fill: Kd (G12C KRAS (aa2-184) (Homo sapiens, UniProt P01116, G12C)) for this compound C#Cc1cccc2cc(O)cc(-c3ncc4c(N5CC[C@@H](CC#N)C5)nc(OC[C@@]56CCCN5C[C@H](F)C6)nc4c3F)c12 [Example 6]
Response: 2.67

---

experimentalTarget: G12C KRAS (aa2-184) (Homo sapiens, UniProt P01116, G12C)
observationType: pKd
Please report pKd as the negative decimal logarithm of the molar concentration, giving only the number.

Query: Quickly give me recorded pKd for C#Cc1c(F)c(F)cc2cc(O)cc(-c3nc4c5c(nc(OC[C@@]67CCCN6C[C@H](F)C7)nc5c3F)N3CCCC[C@H]3CO4)c12 [Example 33]
Response: 10.72

---

# pKd per entry
experimentalTarget: G12D KRAS (aa1-185) (Homo sapiens, UniProt P01116, G12D)
Sequence (P01116 1-185 isoform P01116-2 G12D): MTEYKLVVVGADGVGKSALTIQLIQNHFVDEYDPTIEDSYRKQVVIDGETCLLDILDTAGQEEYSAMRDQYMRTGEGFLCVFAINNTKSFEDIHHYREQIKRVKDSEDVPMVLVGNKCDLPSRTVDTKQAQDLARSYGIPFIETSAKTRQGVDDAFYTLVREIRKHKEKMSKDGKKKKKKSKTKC
assayComment: biochemical
Please report pKd as the negative decimal logarithm of the molar concentration, giving only the number.

Solved cases below.
>>> measuredvalue("C#Cc1cccc2cc(O)cc(-c3ncc4c(N5C[C@H]6C[C@@H](O)[C@@H](C5)O6)nc(OC[C@@]56CCCN5C[C@H](F)C6)nc4c3F)c12 (relative stereo)")
9.67
>>> measuredvalue("C#Cc1c(F)ccc2cc(O)cc(-c3ncc4c(N5CCC[C@@H](CC#N)C5)nc(OC[C@@]56CCCN5C[C@H](F)C6)nc4c3F)c12")
9.89
>>> measuredvalue("C#Cc1c(F)c(F)cc2cc(O)cc(-c3nc4c5c(nc(OC[C@@]67CCCN6C[C@H](F)C7)nc5c3F)N3CCCC[C@H]3CO4)c12")
11.40
>>> measuredvalue("Oc1cc(-c2ncc3c(N4C[C@@H]5C[C@H](C4)[C@H](O)C5)nc(OC[C@@]45CCCN4C[C@H](F)C5)nc3c2F)c2c(F)c(F)ccc2c1")
10.04
>>> measuredvalue("C#Cc1cccc2cc(O)cc(-c3ncc4c(N5C[C@H]6CC[C@@H](C5)O6)nc(OC[C@@]56CCCN5C[C@H](F)C6)nc4c3F)c12")
8.72

Lab note: next compound to report on.
Query: Quickly give me recorded pKd for C#Cc1cccc2cc(O)cc(-c3ncc4c(N5C[C@H](CC#N)[C@@H](F)C5)nc(OC[C@@]56CCCN5C[C@H](F)C6)nc4c3F)c12 (mixture of isomers)
Response: 7.94

---

experimentalTarget: G12D KRAS (aa1-185) (Homo sapiens, UniProt P01116, G12D);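 note: surface plasmon resonance at 10 °C, KRAS captured on a streptavidin chip in GDP-containing buffer, compound dilution series injected, blank streptavidin surface as reference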
assayComment: biochemical
# pKd per entry
Please report pKd as the negative decimal logarithm of the molar concentration, giving only the number.

Solved cases below.
>>> measuredvalue("C#Cc1c(F)ccc2cc(O)cc(-c3nc4c5c(nc(OC[C@@]67CCCN6C[C@H](F)C7)nc5c3F)N(C)CCO4)c12")
10.09
>>> measuredvalue("C#Cc1c(F)ccc2cccc(-c3nc4c5c(nc(OC[C@@]67CCCN6C[C@H](F)C7)nc5c3F)N3C[C@@H](O)CC[C@H]3CO4)c12")
9.60
>>> measuredvalue("Oc1cc(-c2ncc3c(N4C[C@@H]5C[C@H](O)[C@@H]5C4)nc(OC[C@@]45CCCN4C[C@H](F)C5)nc3c2F)c2c(Cl)cccc2c1 (relative stereo)")
7.43
>>> measuredvalue("C#Cc1c(F)ccc2cccc(-c3nc4c5c(nc(OC[C@@]67CCCN6C[C@H](F)C7)nc5c3F)N3CCCC[C@H]3CO4)c12")
8.81
>>> measuredvalue("C#Cc1cccc2cc(O)cc(-c3ncc4c(N5CCC[C@@](C)(CC#N)C5)nc(OC[C@@]56CCCN5C[C@H](F)C6)nc4c3F)c12")
8.77

Query: Quickly give me recorded pKd for "N#C[C@@H]1CCCN1c1nc(OC[C@@]23CCCN2C[C@H](F)C3)nc2c(F)c(-c3cc(O)cc4ccc(F)c(F)c34)ncc12"
Response: 7.63
